Entries and their nuclear beta-catenin stimulation
assayComment: Wnt pathway potentiators raising nuclear beta-catenin – imaging, WNT3A-conditioned medium, mouse C2C12, NPC library, primary screen (AID 1117326)
reportedConditions: stimulation, at 2 µM, stronger effect = higher value

{"compound": "CCN1CCC[C@H]1CNC(=O)c1c(O)c(Cl)cc(Cl)c1OC", "nuclear beta-catenin stimulation": "3.4%"}
{"compound": "CCCCC1(COC(=O)CCC(=O)O)C(=O)N(c2ccccc2)N(c2ccccc2)C1=O", "nuclear beta-catenin stimulation": "4.7%"}
{"compound": "Nc1nc2c(ncn2CCC(CO)CO)c(=O)[nH]1", "nuclear beta-catenin stimulation": "1.8%"}
{"compound": "CCCCOc1ccc(C(=O)CCN2CCCCC2)cc1", "nuclear beta-catenin stimulation": "-0.2%"}
{"compound": "COc1ccc2nc(S(=O)Cc3ncc(C)c(OC)c3C)[nH]c2c1 (configuration not stated)", "nuclear beta-catenin stimulation": "4.5%"}
{"compound": "Cc1c(NC(=O)c2cccnc2)c(=O)n(-c2ccccc2)n1C", "nuclear beta-catenin stimulation": "1.7%"}
{"compound": "CCO/C([O-])=N/c1c[n+](N2CCOCC2)no1", "nuclear beta-catenin stimulation": "1.2%"}
{"compound": "CCN(CC)Cc1cc(Nc2ccnc3cc(Cl)ccc23)ccc1O", "nuclear beta-catenin stimulation": "-1.5%"}
{"compound": "CCOC(=O)OC(C)OC1=C(C(=O)Nc2ccccn2)N(C)S(=O)(=O)c2ccccc21 (configuration not stated)", "nuclear beta-catenin stimulation": "-0.8%"}
{"compound": "COc1cc(-c2ccc(=O)[nH]n2)ccc1OC(F)F", "nuclear beta-catenin stimulation": "0.9%"}
{"compound": "COc1cc(NS(=O)(=O)c2ccc(N)cc2)ncn1", "nuclear beta-catenin stimulation": "3.5%"}
{"compound": "Cc1cc(N)c2ccccc2[n+]1CCCCCCCCCC[n+]1c(C)cc(N)c2ccccc21", "nuclear beta-catenin stimulation": "-0.1%"}
{"compound": "CCn1cc(C(=O)O)c(=O)c2cc(F)c(N3CCNC(C)C3)c(F)c21 (configuration not stated)", "nuclear beta-catenin stimulation": "1.2%"}
{"compound": "CCCc1c(OCCCCc2nn[nH]n2)ccc(C(C)=O)c1O", "nuclear beta-catenin stimulation": "1.2%"}
{"compound": "O=C1CCc2ccc(OCCCCN3CCN(c4cccc(Cl)c4Cl)CC3)cc2N1", "nuclear beta-catenin stimulation": "0.4%"}
{"compound": "c1ccc(CN(CC2=NCCN2)c2ccccc2)cc1", "nuclear beta-catenin stimulation": "2.4%"}
{"compound": "C[n+]1cc2c3c(ccc2c2ccc4cc5c(cc4c21)OCO5)OCO3", "nuclear beta-catenin stimulation": "1.3%"}

====

Entries and their luciferase signal
assayedSystem: Mitogen-activated protein kinase 7 (Homo sapiens) (UniProt Q13164)
Sequence (Q13164 whole entry, looked up, the tested form may be a part): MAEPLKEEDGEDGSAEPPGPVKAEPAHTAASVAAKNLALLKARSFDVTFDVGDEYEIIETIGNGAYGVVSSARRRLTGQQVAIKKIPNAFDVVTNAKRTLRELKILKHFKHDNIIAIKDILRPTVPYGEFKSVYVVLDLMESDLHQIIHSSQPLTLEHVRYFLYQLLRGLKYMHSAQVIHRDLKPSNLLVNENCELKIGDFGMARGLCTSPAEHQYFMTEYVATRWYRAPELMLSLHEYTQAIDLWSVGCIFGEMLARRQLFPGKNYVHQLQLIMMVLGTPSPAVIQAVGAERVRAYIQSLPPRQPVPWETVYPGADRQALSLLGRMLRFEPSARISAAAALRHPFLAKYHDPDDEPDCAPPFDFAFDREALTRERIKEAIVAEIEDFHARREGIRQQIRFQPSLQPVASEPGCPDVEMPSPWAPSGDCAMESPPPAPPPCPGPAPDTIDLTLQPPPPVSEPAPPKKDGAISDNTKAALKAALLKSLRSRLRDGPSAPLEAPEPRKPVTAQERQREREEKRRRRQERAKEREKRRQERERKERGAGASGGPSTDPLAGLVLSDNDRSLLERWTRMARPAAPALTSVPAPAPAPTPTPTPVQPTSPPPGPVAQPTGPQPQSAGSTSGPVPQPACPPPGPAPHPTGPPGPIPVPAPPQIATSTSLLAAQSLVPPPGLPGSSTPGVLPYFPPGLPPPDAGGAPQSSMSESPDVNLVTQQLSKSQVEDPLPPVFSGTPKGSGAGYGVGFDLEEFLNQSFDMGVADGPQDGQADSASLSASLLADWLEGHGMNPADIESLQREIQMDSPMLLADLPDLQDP
assayComment: Gal4-ERK5 driven luciferase induction – cell-based, HTS, primary screen (AID 1508626);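 note: luciferase driven by Gal4-ERK5 fusion binding five Gal4 sites before minimal TATA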
reportedConditions: HeLa Gal4-ERK5 transactivation, 18 h, at 5 µM, stronger effect = higher value
Calls of active or inactive are those of the source.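 The calls were made as follows: active = luciferase signal above three times the same-plate solvent-only control wells; inactive = the rest.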

{"molecule": "NS(=O)(=O)c1cc2c(cc1Cl)NC(C(Cl)Cl)NS2(=O)=O (stereo not drawn)", "luciferase signal": "48 AU (inactive)"}
{"molecule": "O=C(O)c1ccccc1C(=O)Nc1ccc(S(=O)(=O)Nc2nccs2)cc1", "luciferase signal": "92 AU (inactive)"}
{"molecule": "CC1CCc2cc(F)cc3c(=O)c(C(=O)O)cn1c23 (stereo not drawn)", "luciferase signal": "60 AU (inactive)"}
{"molecule": "Cc1cc2nc3c(=O)[nH]c(=O)nc-3n(C[C@H](O)[C@H](O)[C@H](O)CO)c2cc1C", "luciferase signal": "80 AU (inactive)"}
{"molecule": "COc1cc(/C=C/C(=O)CC(=O)/C=C/c2ccc(O)c(OC)c2)ccc1O", "luciferase signal": "44 AU (inactive)"}
{"molecule": "Cc1ccc(C(=O)C(C)CN2CCCCC2)cc1 (stereo not drawn)", "luciferase signal": "40 AU (inactive)"}
{"molecule": "O=C(O)c1cccnc1Nc1cccc(C(F)(F)F)c1", "luciferase signal": "60 AU (inactive)"}
{"molecule": "CCC(Cc1c(I)cc(I)c(N)c1I)C(=O)O (stereo not drawn)", "luciferase signal": "56 AU (inactive)"}
{"molecule": "CCCc1nc(C)c2c(=O)[nH]c(-c3cc(S(=O)(=O)N4CCN(CC)CC4)ccc3OCC)nn12", "luciferase signal": "60 AU (inactive)"}
{"molecule": "C[N+](C)(C)CCCCCC[N+](C)(C)C", "luciferase signal": "52 AU (inactive)"}
{"molecule": "CCCN(CCC)C(=O)C(CCC(=O)O)NC(=O)c1ccccc1 (stereo not drawn)", "luciferase signal": "108 AU (inactive)"}
{"molecule": "CC(C)NCC(O)COc1ccc(COCCOC(C)C)cc1 (stereo not drawn)", "luciferase signal": "84 AU (inactive)"}
{"molecule": "CC(=O)OCC(=O)[C@H]1CC[C@H]2[C@@H]3CCC4=CC(=O)CC[C@]4(C)[C@H]3CC[C@]12C", "luciferase signal": "60 AU (inactive)"}
{"molecule": "O=C1CC2(CCCC2)CC(=O)N1CCCCN1CCN(c2ncccn2)CC1", "luciferase signal": "112 AU (inactive)"}
{"molecule": "CC(=O)Oc1cccc2c1C(=O)c1c(OC(C)=O)cc(C(=O)O)cc1C2=O", "luciferase signal": "44 AU (inactive)"}
{"molecule": "COCCc1ccc(OCC(O)CNC(C)C)cc1 (stereo not drawn)", "luciferase signal": "40 AU (inactive)"}
{"molecule": "CN1[C@@H]2CC[C@H]1CC(OC(=O)C(O)c1ccccc1)C2 (stereo partly drawn)", "luciferase signal": "40 AU (inactive)"}
{"molecule": "CC1(C)S[C@@H]2[C@H](NC(=O)[C@H](N)c3ccccc3)C(=O)N2[C@H]1C(=O)O", "luciferase signal": "44 AU (inactive)"}

====

assayComment: viability loss in pontine glioma line – cell-based, SU-DIPG-IV, MIPE4.0, CellTiter-Glo, qHTS, dose response (AID 1347063);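 note: compound exposure lasted 48 hours before the viability readout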
reportedConditions: CellTiter-Glo ATP luminescence
Inconclusive results are not listed. The source made the active and inactive calls. The limit is not given here; nearly all actives have AC50 up to about 30 µM.
Possible outcomes: active, inactive

{"molecule": "Cc1ccc(NC(=O)c2ccc(CN3CCN(C)CC3)cc2)cc1Nc1nccc(-c2cccnc2)n1", "labelClass": "inactive"}
{"molecule": "O=C1Nc2ccc(Cl)cc2[C@@](C#CC2CC2)(C(F)(F)F)O1", "labelClass": "active"}
{"molecule": "N[C@@H](Cc1ccc(O)c(O)c1)C(=O)O", "labelClass": "inactive"}
{"molecule": "CC1=NN(c2ccccc2)C(=O)C1", "labelClass": "inactive"}
{"molecule": "CC(C)[C@H](N)C(=O)OCCOCn1cnc2c(=O)[nH]c(N)nc21", "labelClass": "inactive"}
{"molecule": "C#CCN[C@@H]1CCc2ccccc21", "labelClass": "inactive"}
{"molecule": "COc1ccc(CC2c3cc(OC)c(OC)cc3CC[N+]2(C)CCC(=O)OCCCCCOC(=O)CC[N+]2(C)CCc3cc(OC)c(OC)cc3C2Cc2ccc(OC)c(OC)c2)cc1OC (centres undefined)", "labelClass": "inactive"}
{"molecule": "Cc1ccccc1N1C(=O)c2cc(S(N)(=O)=O)c(Cl)cc2NC1C (centres undefined)", "labelClass": "inactive"}
{"molecule": "COc1cc(NS(=O)(=O)c2ccc(N)cc2)nc(OC)n1", "labelClass": "inactive"}
{"molecule": "COc1ccc(C2CNC(=O)C2)cc1OC1CCCC1 (centres undefined)", "labelClass": "inactive"}
{"molecule": "Nc1ccc(S(N)(=O)=O)cc1", "labelClass": "inactive"}
{"molecule": "CC1=CC(=O)c2ccccc2C1=O", "labelClass": "active"}
{"molecule": "NCCS(=O)(=O)O", "labelClass": "inactive"}
{"molecule": "CCCOc1ccc(C(=O)OCCN(CC)CC)cc1N", "labelClass": "inactive"}
{"molecule": "COCCCC/C(=N\\OCCN)c1ccc(C(F)(F)F)cc1", "labelClass": "inactive"}
{"molecule": "O=c1c(-c2ccc(O)cc2)coc2cc(O)cc(O)c12", "labelClass": "inactive"}
{"molecule": "CO[C@@]12[C@H](COC(N)=O)C3=C(C(=O)C(C)=C(N)C3=O)N1C[C@@H]1N[C@@H]12", "labelClass": "active"}
{"molecule": "O=NN(CCCl)C(=O)NCCCl", "labelClass": "inactive"}
{"molecule": "CC(C)NCC(O)COc1ccc(COCCOC(C)C)cc1 (centres undefined)", "labelClass": "inactive"}
{"molecule": "Cc1cc2c(C(C)C)c(O)c(O)c(C=O)c2c(O)c1-c1c(C)cc2c(C(C)C)c(O)c(O)c(C=O)c2c1O", "labelClass": "active"}
{"molecule": "Nc1nc2c(ncn2COC(CO)CO)c(=O)[nH]1", "labelClass": "active"}
{"molecule": "OC[C@H]1O[C@@H](O[C@@H]2[C@@H](CO)O[C@](O)(CO)[C@H]2O)[C@H](O)[C@@H](O)[C@H]1O", "labelClass": "inactive"}
{"molecule": "Cn1c(=O)c2c(ncn2CC(O)CO)n(C)c1=O (centres undefined)", "labelClass": "inactive"}
{"molecule": "CC[N+](CC)(CC)CCOc1cccc(OCC[N+](CC)(CC)CC)c1OCC[N+](CC)(CC)CC", "labelClass": "inactive"}
{"molecule": "Cc1onc(-c2ccccc2Cl)c1C(=O)N[C@@H]1C(=O)N2[C@@H]1SC(C)(C)[C@@H]2C(=O)O", "labelClass": "inactive"}
{"molecule": "NC(=O)NO", "labelClass": "active"}
{"molecule": "CC(C)(Sc1cc(C(C)(C)C)c(O)c(C(C)(C)C)c1)Sc1cc(C(C)(C)C)c(O)c(C(C)(C)C)c1", "labelClass": "inactive"}
{"molecule": "CC(=O)[C@]1(O)Cc2c(O)c3c(c(O)c2[C@@H](O[C@H]2C[C@H](N)[C@H](O)[C@H](C)O2)C1)C(=O)c1ccccc1C3=O", "labelClass": "active"}
{"molecule": "CCn1cc(C(=O)O)c(=O)c2cc(F)c(N3CCNC(C)C3)c(F)c21 (centres undefined)", "labelClass": "inactive"}
{"molecule": "COc1cccc2c1C(=O)c1c(O)c3c(c(O)c1C2=O)C[C@@](O)(C(=O)CO)C[C@@H]3O[C@H]1C[C@H](N)[C@H](O)[C@H](C)O1", "labelClass": "active"}
{"molecule": "O=C(Nc1ccc([N+](=O)[O-])cc1Cl)c1cc(Cl)ccc1O", "labelClass": "active"}
{"molecule": "Cc1cc(C2CCCCC2)n(O)c(=O)c1", "labelClass": "active"}
{"molecule": "COc1cc2nc(N3CCN(C(=O)C4CCCO4)CC3)nc(N)c2cc1OC (centres undefined)", "labelClass": "inactive"}
{"molecule": "CCOC(=O)c1ncn2c1CN(C)C(=O)c1cc(F)ccc1-2", "labelClass": "inactive"}
